Tested Target: human cannabinoid CB1 receptor (Homo sapiens)
Sequence (P21554 whole entry): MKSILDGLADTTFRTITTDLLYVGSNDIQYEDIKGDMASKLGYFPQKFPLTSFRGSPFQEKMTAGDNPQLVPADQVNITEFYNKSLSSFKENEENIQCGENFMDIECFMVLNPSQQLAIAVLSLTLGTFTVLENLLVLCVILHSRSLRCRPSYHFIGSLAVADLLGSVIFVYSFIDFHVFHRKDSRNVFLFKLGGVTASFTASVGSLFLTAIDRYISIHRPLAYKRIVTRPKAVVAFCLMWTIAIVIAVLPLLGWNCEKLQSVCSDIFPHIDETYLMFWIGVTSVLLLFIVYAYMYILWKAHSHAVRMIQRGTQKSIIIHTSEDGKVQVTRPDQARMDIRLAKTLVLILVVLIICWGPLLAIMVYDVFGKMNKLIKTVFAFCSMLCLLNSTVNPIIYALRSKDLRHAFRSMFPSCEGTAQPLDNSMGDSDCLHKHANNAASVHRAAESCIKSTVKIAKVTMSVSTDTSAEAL
Assay Explanation: Cannabinoid CB1 antagonistic activity, forskolin-induced cAMP accumulation in CHO cells
Assay type: cell-based
Design: expressed in transfected cells; host or cells: CHO cells
Test Settings: antagonism of CB1 agonist (e.g. CP-55,940 or (R)-WIN-55,212-2) effect on forskolin-induced cAMP accumulation; CHO cells expressing human CB1; read-out: hCB1 pA2 (converted)
Kb reference
Endpoint Name: Kb (nM)

In [3]: df
Out[3]:
                                    compound  endpoint_name  unit_text  sign    val
 0  COc1ccc(-n2cc(C(=O)NC3CCCCC3)nc2-c2ccc(Cl)cc2Cl)cc1 [Example 36]             Kb         nM     =   6.31
 1  CCc1c(C(=O)NC2CCCCC2)nc(-c2ccc(Cl)cc2Cl)n1-c1ccc(Br)cc1 [Example 20]             Kb         nM     <      1
 2  O=C(NN1CCCCC1)c1cn(-c2ccc(C(F)(F)F)cc2)c(-c2ccc(Cl)cc2Cl)n1 [Example 46]             Kb         nM     =   6.31
 3  CCc1c(C(=O)NOC(C)(C)C)nc(-c2ccc(Cl)cc2Cl)n1-c1ccc(Cl)cc1 [Example 14]             Kb         nM     =  0.126
 4  COc1ccc(-n2c(-c3ccc(Cl)cc3Cl)nc(C(=O)NN3CCCCC3)c2C)cc1 [Example 63]             Kb         nM     =      1
 5  CCc1c(C(=O)NN2CCCCC2)nc(-c2ccc(Cl)cc2Cl)n1-c1ccc(Br)cc1 [Example 19]             Kb         nM     =   1.26
 6  Cc1c(C(=O)NOC(C)(C)C)nc(-c2ccc(Cl)cc2Cl)n1-c1ccc(Cl)cc1 [Example 13]             Kb         nM     =   3.16
 7  Cc1c(C(=O)NN2CCCCC2)nc(-c2ccc(Cl)cc2Cl)n1-c1ccc(Cl)cc1 [Example 12]             Kb         nM     =   1.26
 8  Cc1c(C(=O)N[C@H]2CC[C@H](O)CC2)nc(-c2ccc(Cl)cc2Cl)n1-c1ccc(Cl)cc1 [Example 86]             Kb         nM     =   15.8
 9  Cc1c(C(=O)NN2CCCCCC2)nc(-c2ccc(Cl)cc2Cl)n1-c1ccc(Cl)cc1 [Example 92]             Kb         nM     =   1.58
10  O=C(NN1CCCCC1)c1nc(-c2ccc(Cl)cc2Cl)n(-c2ccc(Br)cc2)c1Cl [Example 109]             Kb         nM     =   1.58
11  O=C(NCc1ccc(F)cc1)c1cn(-c2ccc(Cl)cc2)c(-c2ccc(Cl)cc2Cl)n1 [Example 27]             Kb         nM     =   3.98
12  O=C(NN1CCCCC1)c1nc(-c2ccc(Cl)cc2Cl)n(-c2ccc(Cl)cc2)c1Br [Example 117]             Kb         nM     =   2.51
13  O=C(NN1CCCC1)c1cn(-c2ccc(Cl)cc2)c(-c2ccc(Cl)cc2Cl)n1 [Example 2]             Kb         nM     =   25.1
14  CCc1c(C(=O)NN2CCCCC2)nc(-c2ccc(Cl)cc2Cl)n1-c1ccc(Cl)cc1 [Example 15]             Kb         nM     =  0.501
15  O=C(NC1CCCCC1)c1cn(-c2ccc(Cl)cc2)c(-c2ccc(Cl)cc2Cl)n1 [Example 5]             Kb         nM     =   7.94
16  Cc1c(C(=O)NC2CC3CCC2C3)nc(-c2ccc(Cl)cc2Cl)n1-c1ccc(Cl)cc1 (centres unmarked) [Example 84]             Kb         nM     =   1.26
